# System: Musca domestica (adult females)
# assayRemarks: Musca domestica knockdown test
# Type: in vivo
# settings: 1 cm3 of 30 ppm solution in acetone, Kearns and March chamber, 20 adult females, observed over 10 minutes; average of 2 replicates (* single replicate, ** average of 7 tests)
attributeMeasured: KT₅₀ (min)

> print(dat)
                                   compound                      assaytarget  attributemeasured  testvalue
1  CC1(C)C(C=C(Cl)C(F)(F)F)C1C(=O)OCc1c(F)c(F)c(CC#N)c(F)c1F (racemic)  Musca domestica (adult females)               KT₅₀        6.8
2  C#Cc1c(F)c(F)c(COC(=O)C2C(C)(C)C2(C)C)c(F)c1F  Musca domestica (adult females)               KT₅₀        4.1
3  CC1(C)C(C=C(Cl)C(F)(F)F)C1C(=O)OCc1c(F)c(F)c(CCl)c(F)c1F (racemic)  Musca domestica (adult females)               KT₅₀         10

====

KT₉₀ reference
# Tested on: Musca domestica (adult females)
# assayRemarks: Musca domestica knockdown test
# Format: in vivo
# settings: 1 cm3 of 30 ppm solution in acetone, Kearns and March chamber, 20 adult females, observed over 10 minutes; average of 2 replicates (* single replicate, ** average of 7 tests)
attributeMeasured: KT₉₀ (min)

> print(dat)
                                   molecule  attributemeasured  unittag  testvalue
1  C#Cc1c(F)c(F)c(COC(=O)C2C(C)(C)C2(C)C)c(F)c1F [Product XVII]               KT₉₀      min        7.5
2  CC1(C)C(C=C(Cl)C(F)(F)F)C1C(=O)OCc1c(F)c(F)c(CC#N)c(F)c1F (racemic) [Product XII]               KT₉₀      min        9.8
3  CC1(C)C(C=C(Cl)C(F)(F)F)C1C(=O)OCc1c(F)c(F)c(CCl)c(F)c1F (racemic) [Product III]               KT₉₀      min         10

====

# Tested on: Blattella germanica (adult males)
# assayRemarks: Blattella germanica knockdown test
# Assay type: in vivo
# settings: 250 ppm in kerosene, 1 cm3 sprayed onto 10 adult males; 20 min; tests 1 and 2 are repeats
# maps each entry to its % KNOCKDOWN OBSERVED 20 min
attributeMeasured: % KNOCKDOWN OBSERVED 20 min (%)

> print(dat)
                                   molecule                        assaytarget            attributemeasured  unittag  testvalue
1  CC1(C)C(/C=C(\F)C(F)(F)F)C1C(=O)OCc1c(F)c(F)c(CN=[N+]=[N-])c(F)c1F (mixture of isomers) [Product XXVIII]  Blattella germanica (adult males)  % KNOCKDOWN OBSERVED 20 min        %        100
2  CC(C)=NOCc1c(F)c(F)c(COC(=O)[C@@H]2[C@@H](/C=C(\Cl)C(F)(F)F)C2(C)C)c(F)c1F (racemic) [Product XXIII]  Blattella germanica (adult males)  % KNOCKDOWN OBSERVED 20 min        %         10
3  CC(=O)OCc1c(F)c(F)c(COC(=O)C2C(C=C(Cl)C(F)(F)F)C2(C)C)c(F)c1F (racemic) [Product VI]  Blattella germanica (adult males)  % KNOCKDOWN OBSERVED 20 min        %        100

====

Attribute: mortality at 100 ppm
# Test system: Heliothis virescens (tobacco budworm - larvae)
# assayRemarks: insecticidal mortality test, residual, cotton leaf
# Assay type: in vivo
# settings: 72 h, 100 ppm, residual, cotton leaf, 3 days, read-out: grading of mortality, HV
# Procedure: The activity of the Product was determined using a variety of insect pests. The Product was used in the form of liquid preparations containing 500, 250 or 100 parts per million (ppm) by weight of the Product. The preparations were made by dissolving the Product in acetone and diluting the solutions with water containing 0.01% by weight of a wetting agent sold under the trade name "LlSSAPOL" NX until the liquid preparations contained the required concentration of the Product. […]
attributeMeasured: mortality at 100 ppm

> print(dat)
                                   compound                               assaytarget   testvalue
1  CC1(C)C(C=C(Cl)C(F)(F)F)C1C(=O)OCc1c(F)c(F)c(CC#N)c(F)c1F (racemic)  Heliothis virescens (tobacco budworm - larvae)  80 to 100%
2  CC1(C)C(C=C(Cl)C(F)(F)F)C1C(=O)OCc1c(F)c(F)c(CN=[N+]=[N-])c(F)c1F (racemic)  Heliothis virescens (tobacco budworm - larvae)  80 to 100%
3  CC(=O)OCc1c(F)c(F)c(COC(=O)C2C(C=C(Cl)C(F)(F)F)C2(C)C)c(F)c1F (racemic)  Heliothis virescens (tobacco budworm - larvae)  80 to 100%
4  C#Cc1c(F)c(F)c(COC(=O)C2C(C=C(Cl)C(F)(F)F)C2(C)C)c(F)c1F (racemic)  Heliothis virescens (tobacco budworm - larvae)  80 to 100%
5  CC1(C)C(C=C(Cl)C(F)(F)F)C1C(=O)OCc1c(F)c(F)c(CF)c(F)c1F (racemic)  Heliothis virescens (tobacco budworm - larvae)  80 to 100%
6  CC1(C)C(C=C(Cl)C(F)(F)F)C1C(=O)OCc1c(F)c(F)c(CCl)c(F)c1F (racemic)  Heliothis virescens (tobacco budworm - larvae)  80 to 100%
7  CC1(C)C(C=C(Cl)C(F)(F)F)C1C(=O)OCc1c(F)c(F)c(COC=O)c(F)c1F (racemic)  Heliothis virescens (tobacco budworm - larvae)  80 to 100%
8  C#CC(C)OCc1c(F)c(F)c(COC(=O)C2C(C=C(Cl)C(F)(F)F)C2(C)C)c(F)c1F (centres unmarked)  Heliothis virescens (tobacco budworm - larvae)  80 to 100%

====

# System: Musca domestica (adult females)
# assayRemarks: Musca domestica knockdown test
# Type: in vivo
# settings: 1 cm3 of 30 ppm solution in acetone, Kearns and March chamber, 20 adult females, observed over 10 minutes; average of 2 replicates (* single replicate, ** average of 7 tests)
attributeMeasured: KT₉₀

> print(dat)
                                   molecule   testvalue
1  CC1(C)C(C=C(Cl)C(F)(F)F)C1C(=O)OCc1c(F)c(F)c(COC=O)c(F)c1F (racemic)    10* mins
2  CC(C)=CC1C(C(=O)OCN2C(=O)C3=C(CCCC3)C2=O)C1(C)C (stereo not shown) [Tetramethrin, reference compound]  7.5** mins
3  CC(=O)OCc1c(F)c(F)c(COC(=O)C2C(C=C(Cl)C(F)(F)F)C2(C)C)c(F)c1F (racemic)   7.7* mins
4  CC1(C)C(C=C(Cl)C(F)(F)F)C1C(=O)OCc1c(F)c(F)c(CN=[N+]=[N-])c(F)c1F (racemic)   9.0* mins
5  CC=NNc1c(F)c(F)c(COC(=O)C2C(C=C(Cl)C(F)(F)F)C2(C)C)c(F)c1F (stereo not shown)     9.4 min
6  CC1(C)C(C=C(Cl)C(F)(F)F)C1C(=O)OCc1c(F)c(F)c(CF)c(F)c1F (racemic)     5.0 min
7  C#Cc1c(F)c(F)c(COC(=O)C2C(C=C(Cl)C(F)(F)F)C2(C)C)c(F)c1F (racemic)   7.0* mins

====

# Tested on: Musca domestica (adult females)
# assayRemarks: Musca domestica knockdown test
# Assay type: in vivo
# settings: 1 cm3 of 30 ppm solution in acetone, Kearns and March chamber, 20 adult females, observed over 10 minutes; average of 2 replicates (* single replicate, ** average of 7 tests)
attributeMeasured: KT₅₀

> print(dat)
                                   molecule                      assaytarget  attributemeasured  testvalue
1  CC1(C)C(C=C(Cl)C(F)(F)F)C1C(=O)OCc1c(F)c(F)c(CN=[N+]=[N-])c(F)c1F (racemic) [Product X]  Musca domestica (adult females)               KT₅₀  5.0* mins
2  CC1(C)C(C=C(Cl)C(F)(F)F)C1C(=O)OCc1c(F)c(F)c(CF)c(F)c1F (racemic) [Product II]  Musca domestica (adult females)               KT₅₀    2.7 min
3  CC=NNc1c(F)c(F)c(COC(=O)C2C(C=C(Cl)C(F)(F)F)C2(C)C)c(F)c1F (stereo not shown) [Product XIV]  Musca domestica (adult females)               KT₅₀    6.6 min
4  CC(=O)OCc1c(F)c(F)c(COC(=O)C2C(C=C(Cl)C(F)(F)F)C2(C)C)c(F)c1F (racemic) [Product VI]  Musca domestica (adult females)               KT₅₀    7.0 min

Data credit: patent EP0302626A2
